System: proteases of cell-free raw extract of strain W
Test details: Hydrolysis of chromogenic peptide substrates by the proteases (E405 value)
Assay type: biochemical, Fervidobacterium pennavorans
Stated conditions: 17 hours at 60° C., 0.2 mM substrate in phosphate buffer pH 7, 0.3 mg/ml raw enzyme extract, measuring stretch 1 cm
Method: The hydrolysis of chromogenic peptide substrates by proteases of the […] (E405 value) In order to determine the substrate specificity of the proteases the cited chromogenic peptide substrates are incubated in a final concentration of 0.2 mM together with cell-free raw extract. […] The released p-nitroaniline is subsequently measured immediately against a non-incubated blank reading at an extinction of 405 nm.
Numbered stars: 1 amine (or outer) side, 2 acyl side, 3 side chain; on linkers, the order of the positions; unused ones are H or OH. Peptide text beside a SMILES is read from it. * marks the point of attachment. pNA = O=[N+]([O-])c1ccc(N*)cc1; Suc = O=C(CCC(=O)[*:2])[*:1]; Cbz = O=C(OCc1ccccc1)*
Measurement type: E405 value (in comparison to blank value)

Sample answers from the record:
C[C@H](NC(=O)CCC(=O)O)C(=O)N[C@@H](C)C(=O)N1CCC[C@H]1C(=O)N[C@@H](Cc1ccccc1)C(=O)Nc1ccc([N+](=O)[O-])cc1 [N-succinyl-Ala-Ala-Pro-Phe-pNA] (Suc-AAPF-pNA) : > 0.5
CC(=O)N[C@@H](Cc1ccc(O)cc1)C(=O)Nc1ccc([N+](=O)[O-])cc1 : below 0.1
O=C(NCC(=O)N1CCC[C@H]1C(=O)Nc1ccc([N+](=O)[O-])cc1)OCc1ccccc1 [Z-Gly-Pro-pNA] (Cbz-Gly-Pro-pNA) : below 0.1
N=C(N)NCCCC(NC(=O)c1ccccc1)C(=O)Nc1ccc([N+](=O)[O-])cc1 (racemic) : below 0.1
O=C(O)CCC(=O)N[C@@H](Cc1ccccc1)C(=O)Nc1ccc([N+](=O)[O-])cc1 : > 0.5

Recorded result, NCCCC[C@H](NC(=O)c1ccccc1)C(=O)Nc1ccc([N+](=O)[O-])cc1 , E405 value (in comparison to blank value): below 0.1

---

Test system: proteolytic activity of raw extract of strain W
Test details: Influence of metal ions on the proteolytic activity of the raw extract
Type: biochemical, Fervidobacterium pennavorans
Stated conditions: metal ion 5 mM; 1 h room temperature with raw extract, then 1 h at 80° C. with 0.25 % substrate pH 10
Note to self: values exactly at 40% are met. So ca. % activity 5 mM at or above 40% is met, below is not met.

[Cl][Cu][Cl] : not met
O=S(=O)([O-])[O-].[O]=[V+2] : met
[Na+].[Na+].[O]=[W](=[O])([O-])[O-] : met
[Ca+2].[Cl-].[Cl-] : met

-- ask State whether the measured ca. % activity 5 mM reaches 40%, counting equality as reaching it, for [Cl][Fe][Cl]
-- reply not met

-- ask Is reported ca. % activity 5 mM greater than or equal to 40% here: [Na+].[Na+].[O]=[Mo](=[O])([O-])[O-]
-- reply met

-- ask Assess whether reported ca. % activity 5 mM for O=[Se]([O-])[O-].[Na+].[Na+] sits at 40% or higher.
-- reply met

-- ask Please check the record [Cl-].[Cl-].[Mg+2] and state if its ca. % activity 5 mM is at or above 40%.
-- reply met

-- ask Entry [Cl][Ni][Cl] : is its ca. % activity 5 mM no less than 40%?
-- reply met

---

Reported ca. % activity 5 mM values for a set of compounds
System: proteolytic activity of raw extract of strain W
Test details: Influence of metal ions on the proteolytic activity of the raw extract
Format: biochemical, Fervidobacterium pennavorans
Stated conditions: metal ion 5 mM; 1 h room temperature with raw extract, then 1 h at 80° C. with 0.25 % substrate pH 10
Description: Cells of a fermenter culture are macerated (approximately 1 g/20 ml Na-phosphate 50 mM pH 6.8 buffer) by ultrasound. (15 min, 50 %, stage (setting) 6-7, average sonication peak, Branson Sonifier). After microscopic control of successful maceration the raw extract is centrifuged for 20 min, 4° C., 35,000 xg. The supernatant obtained in this manner is used for the enzyme tests. […] In order to determine the enzyme activity, a tyrosine calibration curve is recorded in the range of 0-1 μM/batch. […]
Hi! Could you send only the number? It should be in %, unit omitted.

Please review the following examples before continuing.
[Cl-].[Na+] : 116
[Cl][Fe]([Cl])[Cl] : 0
[Cl-].[Cl-].[Co+2] : 187
[Cl-].[Cl-].[Zn+2] : 37

Now take the following compound into account.
Looking up [Cl][Mn][Cl] , I see its ca. % activity 5 mM listed as 120
